tested on: SK-MEL-5 melanoma; assay: NCI-60 one-dose screen, 48 h; settings: 10 µM unless noted
About 83,000 compounds went through this panel and 20% of them were active in at least one assay; those are over-represented in the sample as a whole. Active and inactive are the calls of the source. Rule for the calls: active = growth percent below 10; inactive = the rest.
Classes to choose from: 1 (active), -1 (inactive)

Hey, what did the test say about O=C(O)c1ccc(NC(=O)c2ccc(Nc3ccnc(C(F)(F)F)c3)cc2)cc1 ?
-1

Hey, what did the test say about COc1ccc(-c2c(N)noc2-c2cc(OC)c3c(c2)OCCO3)cc1 ?
1

====

system: MCF7 breast; assay: NCI-60 one-dose screen, 48 h (100 = growth as untreated, 0 = no growth, -100 = all killed); settings: 10 µM unless noted
Compounds without any hit were thinned out: in the full panel of roughly 83,000, 20% have a hit.
Would you please tag the item condition met when its growth is 60% or above, and condition not met when it is below?

# count of solved cases: 5
[
  {
    "Molecule": "CC(C)COCC(CN(Cc1ccccc1)c1ccccc1)N1CCCC1 (stereo unspecified)",
    "Class": "condition not met"
  },
  {
    "Molecule": "COc1ccc(Nc2nccc(N3CCN(c4c5ccc(Cl)cc5nc5ccc(OC)cc45)CC3)n2)cc1",
    "Class": "condition not met"
  },
  {
    "Molecule": "CCCCCCOc1ccc(/C=N/NC(N)=S)cc1",
    "Class": "condition not met"
  },
  {
    "Molecule": "O=C(Nc1ccccc1Cl)c1cnc2ccc(C3CCNCC3)cn12",
    "Class": "condition met"
  },
  {
    "Molecule": "CC(C)(C)c1cc(O)c(O)c(C(C)(C)C)c1",
    "Class": "condition not met"
  }
]

Check the entry CC(C)c1ccc(C(=O)Nc2sc3c(CN(C)C)c(O)ccc3c2C(N)=O)cc1 : does growth equal or exceed 60%?
condition not met

Check the entry O=C(N1CCC(CN=c2cc3n(-c4ccc(Cl)cc4)c4ccccc4nc-3cc2Nc2ccc(Cl)cc2)CC1)N1CC1 : does growth equal or exceed 60%?
condition not met

Check the entry O=C(Cc1ccccn1)C(F)(F)C(F)(F)C(F)(F)F : does growth equal or exceed 60%?
condition met

====

Tested on: SNB-19 CNS
Experiment: NCI-60 one-dose screen, 48 h (100 = growth as untreated, 0 = no growth, -100 = all killed)
Conditions: 10 µM unless noted
Description: Growth inhibition of the SNB-19 human tumor cell line is measured as a screen for anti-cancer activity. Cells are grown in 96 well plates and exposed to the test compound for 48 hours. Compounds are tested at a single concentration, which is 10^-5 M for most compounds. The reported endpoint is percent growth (GI% or GIPRCNT), where numbers from 0 - 100% represent growth inhibition, and numbers from -100% - 0 represent cell death. For example, a value of 40 represents 60% growth inhibition. […]
This is part of a sample that, as a whole, favours compounds with a hit. Of some 83,000 tested, about 20% had one in any assay.
Measure: growth (%)
Answer with a number only, understood to be in %.

[
  {
    "Molecule": "CCN(CC)c1ccc(N=Nc2cc(Cl)ccc2Cl)c(NC(=O)CCC(=O)O)c1",
    "Measure": "growth",
    "Measured Number": 110
  }
]

// fetch growth; item: CCN(CC)CCCCNc1c2ccccc2[n+](C)c2c1[nH]c1ccccc12 ; system: SNB-19 CNS
-22.7

// fetch growth; item: Cc1cc(CC(=O)O)n(C)c1C(=O)c1ccc(Cl)cc1 ; system: SNB-19 CNS
108

// fetch growth; item: Cn1cc(-c2nc(-c3c[nH]c4ncc(F)cc34)cs2)c2cccnc21 ; system: SNB-19 CNS
108

// fetch growth; item: CSc1nnc(C2=CC(=O)c3ccccc3C2=O)n1-c1ccccc1 ; system: SNB-19 CNS
91.5

Data provenance is PubChem BioAssay (NCI).
